I'd appreciate it if you could supply Frequency values for the items below.
Biological target: (h) TNF-α (Homo sapiens)
Sequence (P01375 77-233 limits assumed): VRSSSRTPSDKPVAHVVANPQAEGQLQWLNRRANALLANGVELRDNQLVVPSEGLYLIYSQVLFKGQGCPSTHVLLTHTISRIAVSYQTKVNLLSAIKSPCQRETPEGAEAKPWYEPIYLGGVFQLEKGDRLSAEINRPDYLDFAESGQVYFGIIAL
Assay: Selective targeting of a phage-displayed 7-mer library on TNF-α, PCR identification of bound clones
Type: binding
Parameters: purchased BioSource International; Camarillo, Calif
Conditions: number of multiple times this amino acid sequence occurred out of 24 clones sequenced; binds TNF-alpha and not SuperBlock
Give bare numbers.

Below, 6 substances whose answers are already recorded.
Substance	Frequency
WTPKPTQ (peptides screened from a phage display random peptide library) [Clone T4]	2
ASTVGGL (peptides screened from a phage display random peptide library) [Clone T6]	2
APEPILA (peptides screened from a phage display random peptide library) [Clone T2]	7
DMIMVSI (peptides screened from a phage display random peptide library) [Clone T3]	3
TMLPYRP (peptides screened from a phage display random peptide library) [Clone T7]	2
ATFPNQS (peptides screened from a phage display random peptide library) [Clone T5]	2

Shifting focus to the substance that follows.
Prompt: Find the recorded Frequency belonging to RYWQDIP (peptides screened from a phage display random peptide library) [Clone T1] and report it.
Response: 8
